These entries and their values trace back to BindingDB's records for doi:10.1021/jm000023o.

experiment: Concentration required for 50% Inhibition of responses at cloned NR1A/2AB N-methyl-D-aspartate (NMDA) expressed in Xenopus oocytes
VALUE_KIND: IC50 (nM)
Numbers only, in nM.

Req: I'd like to know its IC50. The compound in question is "Oc1ccc(C#CCN2CCC(Cc3ccccc3)CC2)cc1"
Resp: 100
